tested_on: Human Thyroid Hormone Receptor α1 (TRα1) (Homo sapiens)
Construct: expressed in transfected cells; host or cells: 293T cells
Sequence (P10827 1-410 isoform P10827-2): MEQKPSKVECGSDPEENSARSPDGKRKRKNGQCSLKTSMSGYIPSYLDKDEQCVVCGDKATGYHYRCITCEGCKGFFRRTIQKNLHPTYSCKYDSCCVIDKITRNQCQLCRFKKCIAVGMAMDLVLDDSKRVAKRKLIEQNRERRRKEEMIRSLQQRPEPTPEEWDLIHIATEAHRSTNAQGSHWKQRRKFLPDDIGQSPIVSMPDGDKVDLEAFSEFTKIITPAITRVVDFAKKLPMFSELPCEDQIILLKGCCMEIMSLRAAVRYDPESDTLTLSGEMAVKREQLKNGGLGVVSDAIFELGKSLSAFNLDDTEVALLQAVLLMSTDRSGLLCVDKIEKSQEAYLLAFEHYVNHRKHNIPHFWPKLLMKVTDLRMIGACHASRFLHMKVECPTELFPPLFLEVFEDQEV
experimental_details: Transcription activation test of human thyroid hormone receptor α1 (luciferase reporter in 293T cells)
Type: cell-based
condition_description: ratio TRα/TRβ of the transcription activation EC50 values
observation_type: selectivity (TRα/TRβ)

{"molecule": "Cc1cc(OCC(=O)O)c2c(c1Cc1ccc(O)c(C3CCCCC3)n1)CCC2 [Example 152]", "value_reported": "B (2<(TRα/TRβ)<5)"}
{"molecule": "Cc1cc(C(=O)O)c(C)c(C)c1Cc1ccc(O)c(C2CCCCC2)n1 [Example 42]", "value_reported": "B (2<(TRα/TRβ)<5)"}
{"molecule": "Cc1cc(OCc2noc(=O)[nH]2)c(F)c(C)c1Cc1ccc(O)c(-c2cccc(N3CCCC3)c2)n1 [Example 206]", "value_reported": "A (5<(TRα/TRβ))"}
{"molecule": "Cc1cc(OCC(=O)O)c(C)c(C)c1Cc1ccc(O)c(C2CCCO2)n1 (stereo not shown) [Example 6]", "value_reported": "B (2<(TRα/TRβ)<5)"}
{"molecule": "Cc1cc(NC(=O)C(=O)O)c(C)c(C)c1Cc1ccc(O)c(C2CCCCC2)n1 [Example 20]", "value_reported": "C (2>(TRα/TRβ))"}

Query: Lab note: need selectivity (TRα/TRβ) for Cc1cc(NC(=O)CC(=O)O)c(Cl)c(C)c1Cc1ccc(O)c(C2CCCCC2)n1 [Example 54] on Human Thyroid Hormone Receptor α1 (TRα1) (Homo sapiens), anyone have it?
Response: A (5<(TRα/TRβ))

Query: Lab note: need selectivity (TRα/TRβ) for Cc1cc(OC(C)C(=O)O)cc(C)c1Cc1ccc(O)c(C2CCCCC2)n1 (stereo not shown) [Example 14] on Human Thyroid Hormone Receptor α1 (TRα1) (Homo sapiens), anyone have it?
Response: B (2<(TRα/TRβ)<5)

Query: Lab note: need selectivity (TRα/TRβ) for Cc1cc(OCC(=O)O)c(C)c(C)c1Cc1ccc(O)c(C2CCCCCC2)n1 [Example 92] on Human Thyroid Hormone Receptor α1 (TRα1) (Homo sapiens), anyone have it?
Response: A (5<(TRα/TRβ))

Query: Lab note: need selectivity (TRα/TRβ) for Cc1cc(OCC(=O)O)c(C)c(C)c1Oc1ccc(O)c(C(C)C)n1 [Example 9] on Human Thyroid Hormone Receptor α1 (TRα1) (Homo sapiens), anyone have it?
Response: C (2>(TRα/TRβ))
